Answer each item with its documented GI50.
System Tested: EGFR L858R/C797S Ba/F3 cells (Homo sapiens, UniProt P00533, C797S/L858R, cells depend on it)
Sequence (P00533 whole entry C797S/L858R): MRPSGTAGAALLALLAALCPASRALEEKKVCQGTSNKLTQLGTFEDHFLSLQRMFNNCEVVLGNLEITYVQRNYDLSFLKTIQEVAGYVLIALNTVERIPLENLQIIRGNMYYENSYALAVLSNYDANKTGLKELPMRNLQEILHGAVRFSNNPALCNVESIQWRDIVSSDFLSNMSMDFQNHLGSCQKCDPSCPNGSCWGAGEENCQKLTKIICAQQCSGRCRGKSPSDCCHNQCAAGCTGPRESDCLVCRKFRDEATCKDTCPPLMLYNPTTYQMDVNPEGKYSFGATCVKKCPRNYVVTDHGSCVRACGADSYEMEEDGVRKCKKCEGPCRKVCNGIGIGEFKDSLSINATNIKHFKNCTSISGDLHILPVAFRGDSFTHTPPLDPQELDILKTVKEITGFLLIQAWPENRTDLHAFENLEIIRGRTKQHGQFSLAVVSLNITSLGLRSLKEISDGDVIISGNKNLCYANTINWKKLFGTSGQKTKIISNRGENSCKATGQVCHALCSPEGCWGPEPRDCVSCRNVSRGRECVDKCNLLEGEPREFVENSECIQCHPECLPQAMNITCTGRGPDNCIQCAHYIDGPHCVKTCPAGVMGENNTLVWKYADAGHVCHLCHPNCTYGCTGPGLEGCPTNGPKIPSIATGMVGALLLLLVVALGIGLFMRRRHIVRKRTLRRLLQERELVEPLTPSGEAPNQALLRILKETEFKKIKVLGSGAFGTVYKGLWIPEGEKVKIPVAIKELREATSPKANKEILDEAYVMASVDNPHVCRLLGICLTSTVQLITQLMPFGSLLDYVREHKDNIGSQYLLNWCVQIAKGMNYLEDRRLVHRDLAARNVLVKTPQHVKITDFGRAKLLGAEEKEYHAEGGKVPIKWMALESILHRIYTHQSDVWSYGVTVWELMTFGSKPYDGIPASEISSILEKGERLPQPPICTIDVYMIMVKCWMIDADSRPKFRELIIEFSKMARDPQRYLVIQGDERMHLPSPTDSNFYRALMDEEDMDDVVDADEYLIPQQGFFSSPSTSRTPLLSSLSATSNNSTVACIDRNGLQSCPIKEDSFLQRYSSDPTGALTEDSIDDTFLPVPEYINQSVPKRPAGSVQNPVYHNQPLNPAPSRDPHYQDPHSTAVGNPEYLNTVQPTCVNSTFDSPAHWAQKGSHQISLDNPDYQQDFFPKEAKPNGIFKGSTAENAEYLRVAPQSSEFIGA
Method: Ba/F3 cell proliferation (Cell Titer Glo), EGFR L858R/C797S
Assay type: cell-based, murine
Details: 72 hours, Table 6

Need GI50 of C=C(C)C(=O)N1CC[C@H](N2Cc3cnc(Nc4ccc(N5CCN(C)CC5)cc4)nc3N(C)C2=O)c2ccccc21 [Compound 090] , thanks.
500 to 2500 nM

Need GI50 of C=CC(=O)N1CCC(N2Cc3cnc(Nc4ccc(N5CCN(C)CC5)cc4)nc3N(C)C2=O)c2cnn(C)c21 (stereo not drawn) [Compound 132] , thanks.
100 to 500 nM

Need GI50 of C=CC(=O)N1CCC(N2Cc3cnc(Nc4ccc(OCCN5CCCC5)cc4)nc3N(C)C2=O)c2ccccc21 (stereo not drawn) [Compound 068] , thanks.
< 100 nM

Need GI50 of C=CC(=O)N1CC[C@H](N2Cc3cnc(Nc4ccc(CS(C)(=O)=O)cc4)nc3N(C)C2=O)c2cccc(C)c21 [Compound 144] , thanks.
< 100 nM

Need GI50 of C=CC(=O)N1CC[C@H](N2Cc3cnc(Nc4ccc(CS(=O)(=O)NC)cc4)nc3N(C)C2=O)c2cccc(C)c21 [Compound 145] , thanks.
< 100 nM

Batch of 4 compounds: report GI50 for each.
1. C=CC(=O)N1CCC(N2Cc3cnc(Nc4ccc(N5CCN(C)CC5)cc4)nc3N(C3CCCC3)C2=O)c2ccccc21 (stereo not drawn) [Compound 057]
2. C=C(F)C(=O)N1CC[C@H](N2Cc3cnc(Nc4ccc5c(c4)CCN(C)C5)nc3N(C)C2=O)c2ccccc21 [Compound 098]
3. C=CC(=O)N1CCC(N2Cc3cnc(Nc4ccc(N5CCN(C)CC5)cc4)nc3N(C)C2=O)[C@@H](N)C1 (stereo in doubt) [Compound 149]
4. C=CC(=O)N1CC[C@H](N2Cc3cnc(Nc4ccc(N5CCN(C)CC5)cc4)nc3N(C)C2=O)[C@H](N)C1 (relative stereo) [Compound 148]

1. < 100 nM
2. < 100 nM
3. ≥ 2500 nM
4. ≥ 2500 nM
